assay-procedure: Metabolic stability in Wistar Han rat liver microsomes assessed as parent compound remaining at 50 uM […] for 60 mins by LC-ESI/MS analysis
Assay type: ADME, Microsome
condition-set: read-out: Stability
measured-parameter: remaining at 1 h, 50 µM

Query: Item under review: O=C(NCCCCCCCn1cc(-c2cccnc2)nn1)c1ccccc1-n1ccnn1 . Reported remaining at 1 h, 50 µM?
Response: 70%

---

study-system: Nicotinamide phosphoribosyltransferase (Mus musculus)
Sequence (Q99KQ4 whole entry): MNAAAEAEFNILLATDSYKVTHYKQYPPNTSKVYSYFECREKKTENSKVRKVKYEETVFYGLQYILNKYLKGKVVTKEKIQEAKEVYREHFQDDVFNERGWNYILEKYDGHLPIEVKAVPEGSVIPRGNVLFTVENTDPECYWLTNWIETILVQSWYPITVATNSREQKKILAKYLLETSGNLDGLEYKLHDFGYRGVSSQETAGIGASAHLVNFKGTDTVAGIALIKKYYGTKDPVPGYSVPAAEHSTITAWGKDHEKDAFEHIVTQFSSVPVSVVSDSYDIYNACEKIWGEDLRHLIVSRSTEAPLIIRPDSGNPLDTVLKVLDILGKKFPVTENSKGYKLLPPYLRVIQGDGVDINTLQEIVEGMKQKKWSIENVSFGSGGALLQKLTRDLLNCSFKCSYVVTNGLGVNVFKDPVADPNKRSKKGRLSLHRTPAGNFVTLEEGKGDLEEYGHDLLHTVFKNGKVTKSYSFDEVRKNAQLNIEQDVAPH
assay-procedure: Inhibition of recombinant mouse wild-type NAMPT expressed in bacterial expression system using PRPP as substrate in presence of mouse NMNAT-3 measured for 1 hr by fluorescence assay
measured-parameter: pIC50
Lab note — pIC50 values are minus log10 of concentrations in M.

Take a look at these entries with their results.
O=C(NCCCCCCCn1cc(-c2cccnc2)nn1)c1ccccc1-c1c[nH]nn1	7.37
O=C(NCCCCCCCn1cc(-c2cccnc2)nn1)c1ccccc1-n1cc(CN2CCC(O)CC2)nn1	7.38
O=C(O)c1ccccc1-c1ccccc1C(=O)NCCCCCCCn1cc(-c2cccnc2)nn1	7.41
NC(=O)c1ccccc1-c1ccccc1C(=O)NCCCCCCCn1cc(-c2cccnc2)nn1	7.06

Query: Item under review: O=C(NCCCCCCCn1cc(-c2cccnc2)nn1)c1ccccc1-n1cc(CN(CCO)CCO)nn1 . Reported pIC50?
Response: 7.13

Query: Also check O=C(NCCCCCCCn1cc(-c2cccnc2)nn1)c1ccccc1-n1cc(CN2CCOCC2)nn1
Response: 7.30

Query: Also check CCOC(=O)C1CCN(Cc2cn(-c3ccccc3C(=O)NCCCCCCCn3cc(-c4cccnc4)nn3)nn2)CC1
Response: 7.69

Query: Also check O=C(NCCCCCCCn1cc(-c2cccnc2)nn1)c1ccccc1-c1cccnc1
Response: 7.55

Query: Also check CC(C)N1CCN(Cc2cn(-c3ccccc3C(=O)NCCCCCCCn3cc(-c4cccnc4)nn3)nn2)CC1
Response: 7.61

Query: Also check O=C(NCCCCCCCn1cc(-c2cccnc2)nn1)c1ccccc1-n1ccnn1
Response: 8.47

Query: Also check CN1CCN(Cc2cn(-c3ccccc3C(=O)NCCCCCCCn3cc(-c4cccnc4)nn3)nn2)CC1
Response: 7.87

---

Recorded solubility kinetic by entry
assay-procedure: Kinetic aqueous solubility of the compound in 80:20 PBS/acetonitrile solution at 200 to 500 uM by HTS assay
Assay type: physicochemical
condition-set: read-out: Kinetic_solubility

Take a look at these entries with their results.
CCOC(=O)C1CCN(Cc2cn(-c3ccccc3C(=O)NCCCCCCCn3cc(-c4cccnc4)nn3)nn2)CC1	200 to 500 µM
O=C(NCCCCCCCn1cc(-c2cccnc2)nn1)c1ccccc1-n1ccnn1	200 to 500 µM
CC(C)N1CCN(Cc2cn(-c3ccccc3C(=O)NCCCCCCCn3cc(-c4cccnc4)nn3)nn2)CC1	200 to 500 µM

Query: Item under review: O=C(NCCCCCCCn1cc(-c2cccnc2)nn1)c1ccccc1-n1cc(CN2CCCCC2)nn1 . Reported solubility kinetic?
Response: 200 to 500 µM

---

assay-procedure: Cytotoxicity against human SH-SY5Y cells assessed as cell viability at 1 uM measured after 48 hrs by MTT assay relative to control
Type: cell-based
condition-set: read-out: Activity
Recorded viability at 48 h, 1 µM by entry
Enter your answer as a number in %; do not include the unit.

Take a look at these entries with their results.
O=C(NCCCCCCCn1cc(-c2cccnc2)nn1)c1ccccc1-c1cccnc1	15.1
O=C(NCCCCCCCn1cc(-c2cccnc2)nn1)c1ccccc1-n1ccnn1	10.5

Alright, here's another compound for you.
Query: Item under review: CN(C)Cc1cn(-c2ccccc2C(=O)NCCCCCCCn2cc(-c3cccnc3)nn2)nn1 . Reported viability at 48 h, 1 µM?
Response: 86.6

Source: ChEMBL document CHEMBL4359872
